List of IC50 values.
# STUDY_SYSTEM: UniProtKB Q05209
# Sequence (Q05209 2-323): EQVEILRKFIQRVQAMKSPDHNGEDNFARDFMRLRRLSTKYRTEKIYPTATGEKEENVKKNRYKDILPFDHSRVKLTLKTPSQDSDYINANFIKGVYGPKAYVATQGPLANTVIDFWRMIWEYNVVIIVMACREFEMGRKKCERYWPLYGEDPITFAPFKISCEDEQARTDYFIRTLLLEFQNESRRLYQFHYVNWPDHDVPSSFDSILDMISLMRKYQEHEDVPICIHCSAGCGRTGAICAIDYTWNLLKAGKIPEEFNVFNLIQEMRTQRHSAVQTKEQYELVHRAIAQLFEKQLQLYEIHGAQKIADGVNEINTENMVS
# TEST_METHOD_NOTES: PTP-PEST inhibition assay with fluorogenic substrates
# Assay type: biochemical
# PARTICULARS: read-out: IC50 PEST (peptide 1); pH 6.5
Record the result as number plus unit.

Below are worked cases with known answers.
Exam item: What value of measured IC50 is listed for [Cl][Au][PH](c1ccccc1)(c1ccccc1)c1ccccn1 [Compound 17, Diphenyl-2-pyridylphosphine-Au(I)-Cl] ?
Marked response: 43 µM

Exam item: Cool, now O=S(=O)(O)c1cccc([P+]([Au-][Cl])(c2ccccc2)c2ccccc2)c1 [Compound 12]
Marked response: 4 µM

---
Exam item: What value of measured IC50 is listed for O=S(=O)(O)c1ccc([P+]([Au-][Cl])(c2ccccc2)c2ccc(S(=O)(=O)O)cc2)cc1 [Compound 18] ?
Marked response: 10 µM
